Test system: BDF1 mice, B16 melanoma ip, median survival T/C
Experiment: NCI In Vivo Anticancer Drug Screen. Data for tumor model B16 Melanoma (intraperitoneal) in B6D2F1 (BDF1) mice
Conditions: endpoint: median survival time; dose: 300.0 mg/kg/injection; schedule: Q01DX009 (ip); vehicle: Klucel (hydroxypropylcellulose) (HPC); higher = longer survival
Method: The antitumor activity of compounds was measured in mice bearing transplantable tumors. Survival or tumor size were measured and the results are expressed as the measurement made in the treated group (T) divided by the measurement made in the vehicle treated control group (C). The tumor model used in this assay is B16 Melanoma (intraperitoneal) in B6D2F1 (BDF1) mice
Inconclusive results and toxic doses are left out.
Consider the following molecules; for each one, report its T/C.

[in] Give the measured T/C of O=C(N=C1C=CC(=NC(=O)OCc2ccccc2)C=C1)OCc1ccccc1 .
[out] 91 % of control

[in] Give the measured T/C of COCC(=O)CC(C)=O .
[out] 105 % of control

[in] Give the measured T/C of Cc1ccc(C(=O)/C=C/c2ccccc2O)cc1 .
[out] 88 % of control

[in] Give the measured T/C of Cc1c(Cl)cccc1NC(=O)c1cccc([N+](=O)[O-])c1 .
[out] 91 % of control
